# Tested Target: T1, human CD3e/d complex on cells transiently transfected with pOPT-CD3e/d-hum-mix (human, UniProt P07766 23-126; P04234 22-171)
# T1 construct: Tagged screening constructs
# T1 sequence (P07766 23-126 limits assumed, chain 1 of 2): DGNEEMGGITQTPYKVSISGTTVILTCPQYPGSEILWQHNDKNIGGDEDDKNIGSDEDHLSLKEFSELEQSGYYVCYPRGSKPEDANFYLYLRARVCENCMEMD
# T1 sequence (P04234 22-171 limits assumed, chain 2 of 2): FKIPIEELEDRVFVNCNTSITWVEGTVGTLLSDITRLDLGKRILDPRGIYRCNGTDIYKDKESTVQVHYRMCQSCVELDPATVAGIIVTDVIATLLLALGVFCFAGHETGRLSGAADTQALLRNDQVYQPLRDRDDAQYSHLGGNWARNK
# Test Details: CELISA, hybridoma supernatant

[
  {
    "Binder": "BLW-2E6 (antibody, V domains shown, OmniRat hybridoma supernatant: human V regions on rat constant regions; also called V regions cloned as CD3B312 (CD3H219/CD3L124)) VH: QVQLQQSGPRLVRPSQTLSLTCAISGDSVFNNNAAWSWIRQSPSRGLEWLGRTYYRSKWLYDYAVSVKSRITVNPDTSRNQFTLQLNSVTPEDTALYYCARGYSSSFDYWGQGTLVTVSS VL: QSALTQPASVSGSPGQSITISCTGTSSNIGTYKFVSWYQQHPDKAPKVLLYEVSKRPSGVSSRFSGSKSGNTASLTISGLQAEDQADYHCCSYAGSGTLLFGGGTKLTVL",
    "% positive, %": 34
  },
  {
    "Binder": "BLX-3F4 (antibody, V domains shown, OmniRat hybridoma supernatant: human V regions on rat constant regions; also called V regions cloned as CD3B316 (CD3H222/CD3L124)) VH: QVRLQQSGPGLVKPSQTLSLTCAISGDSVFNNNAAWSWIRQSPSRGLEWLGRTYYRSKWLYDYAVTVKSRITVNPDTSRNQFTLQLTSVTPEDTALYYCARGYSSSFDYWGQGTLVTVSS VL: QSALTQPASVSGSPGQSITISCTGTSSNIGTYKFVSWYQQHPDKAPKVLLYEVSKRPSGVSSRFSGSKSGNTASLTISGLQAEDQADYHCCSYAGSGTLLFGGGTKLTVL",
    "% positive, %": 131
  }
]
